B1: SMG5 (parent)
chain: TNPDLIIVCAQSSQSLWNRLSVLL

Variants of: B1
experiment.notes: protein stability index of a GFP-peptide fusion (GPS, HEK-293T) (PSI 1-6); higher = more stable;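 also: lentivirally expressed fusions sorted by FACS into six bins by GFP to DsRed ratio, PSI derived from sequencing read proportions per bin multiplied by bin number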
experimental.conditions: c terminus: a fixed tail appended
Measured protein stability index, listed per entry.
outcome.measure: protein stability index

monomer.sequence	outcome.measure	meas.value
TNWDLIIVCAQSSQSLWNRLSVLL [P3W]	protein stability index	3.4
TNPDLIIVCAQSSQCLWNRLSVLL [S15C]	protein stability index	3.21
TNPDLVIVCAQSSQSLWNRLSVLL [I6V]	protein stability index	4.02
TNPDLIIVCAQSSASLWNRLSVLL [Q14A]	protein stability index	3.98
TNPDLIIVCAQSSQSLWNVLSVLL [R19V]	protein stability index	1.86
TNPDMIIVCAQSSQSLWNRLSVLL [L5M]	protein stability index	2.01
TNPDLIIVCAQSSQSLPNRLSVLL [W17P]	protein stability index	2.82
TNPDLIIVCAQSSQSLWNRLSVLP [L24P]	protein stability index	1.38
TNPDLIIVCAQSSQSLWNRLSVRL [L23R]	protein stability index	2.83
TNPDLIIHCAQSSQSLWNRLSVLL [V8H]	protein stability index	1.91
TNPDLIIVCAQSSQILWNRLSVLL [S15I]	protein stability index	4.01

The reported numbers originate from the supplement of paper PMC10567573.
